Measured binding signal, listed per entry for reference.
target: C-Rel subunit;p50 subunit (Homo sapiens;Homo sapiens, UniProt Q04864;P19838 1-285;7-356); assay: protein binding microarray; high values mean tight binding; conditions: dsDNA, one strand shown
Sequence (Q04864 1-285, chain 1 of 2): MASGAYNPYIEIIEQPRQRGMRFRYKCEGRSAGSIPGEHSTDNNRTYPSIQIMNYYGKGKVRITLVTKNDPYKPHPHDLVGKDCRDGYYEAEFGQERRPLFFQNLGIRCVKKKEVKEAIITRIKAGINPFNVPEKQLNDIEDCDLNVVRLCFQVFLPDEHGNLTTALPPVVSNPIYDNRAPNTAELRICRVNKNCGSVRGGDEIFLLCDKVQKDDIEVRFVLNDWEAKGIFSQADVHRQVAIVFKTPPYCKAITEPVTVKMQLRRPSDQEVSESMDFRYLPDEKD
Sequence (P19838 7-356, chain 2 of 2): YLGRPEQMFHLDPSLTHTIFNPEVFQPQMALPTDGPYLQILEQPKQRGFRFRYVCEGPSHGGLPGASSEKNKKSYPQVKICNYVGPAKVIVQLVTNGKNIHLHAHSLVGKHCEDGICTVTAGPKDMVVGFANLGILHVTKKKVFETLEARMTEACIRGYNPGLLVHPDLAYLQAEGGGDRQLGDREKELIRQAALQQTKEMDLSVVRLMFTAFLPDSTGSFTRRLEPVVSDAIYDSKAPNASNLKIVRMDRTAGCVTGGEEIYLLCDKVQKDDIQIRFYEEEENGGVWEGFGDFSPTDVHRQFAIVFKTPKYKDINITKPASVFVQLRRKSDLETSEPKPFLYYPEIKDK
Remember to put the unit after the number in your answer.

Known binding signal results, listed for orientation:
INSERT INTO measurements (residues, quantity_measured, result) VALUES
  ('AGATTGACCCT', 'binding signal', '-0.895 z-score'),
  ('AGAATAATCCT', 'binding signal', '-0.925 z-score'),
  ('CAGAGCACCCT', 'binding signal', '-1.15 z-score'),
  ('CAATGACTCCT', 'binding signal', '-1.33 z-score'),
  ('CGATGTACCCC', 'binding signal', '0.113 z-score');

-- ask Could you tell me which binding signal is on file for "CGGGACCCCCT" ?
-- reply 0.895 z-score

-- ask Let us now turn to "GGAGGAGTCCC"
-- reply 0.717 z-score

-- ask Thanks! And "GAGGTGACCCC" ?
-- reply -0.788 z-score

-- ask What do we get for "AGATATCTCCT" ?
-- reply -1.37 z-score

-- ask Also need "GGAATGATCCC" , thanks.
-- reply -0.432 z-score

-- ask Next up: "CAAGGTACCCT"
-- reply -0.833 z-score

-- ask Now consider "CAAATAGCCCC" and answer again.
-- reply 0.331 z-score

-- ask Also need "GAGTTATCCCT" , thanks.
-- reply -0.0693 z-score

-- ask Cool, now "GAAGATTTCCT"
-- reply -0.169 z-score
